- tested_system: Mu-type opioid receptor (Homo sapiens, UniProt P35372)
- Sequence (P35372 whole entry): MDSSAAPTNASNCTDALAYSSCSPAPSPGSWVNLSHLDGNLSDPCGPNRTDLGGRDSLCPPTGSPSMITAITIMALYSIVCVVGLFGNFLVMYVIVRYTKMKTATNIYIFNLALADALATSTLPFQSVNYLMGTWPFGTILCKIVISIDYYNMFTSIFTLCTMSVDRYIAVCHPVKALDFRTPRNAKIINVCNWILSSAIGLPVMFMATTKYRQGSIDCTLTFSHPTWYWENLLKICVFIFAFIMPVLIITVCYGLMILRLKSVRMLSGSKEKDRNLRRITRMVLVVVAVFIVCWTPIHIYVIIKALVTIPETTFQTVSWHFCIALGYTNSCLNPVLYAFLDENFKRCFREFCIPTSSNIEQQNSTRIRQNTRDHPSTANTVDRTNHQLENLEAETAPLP
- procedure_summary: Positive allosteric modulation of human mu opioid receptor-1 expressed in CHO cells assessed as potentiation of endomorphin 1-induced response after 90 mins by beta-arrestin recruitment assay
- Format: cell-based
Lab note - cut at 80% for Emax: 1 if strictly below, -1 if not.

Emax under 80%? Item: Cc1cccc(COc2ccc(C3C4=C(CC(C)(C)CC4=O)OC4=C3C(=O)CC(C)(C)C4)cc2)c1
-1

API: query returns whether the molecule falls strictly under 80% in Emax. Query: CC1(C)CC(=O)C2=C(C1)OC1=C(C(=O)CC(C)(C)C1)C2c1ccc(OCc2ccccc2)cc1
-1

Would you kindly verify if Emax of CC1(C)CC(=O)C2=C(C1)OC1=C(C(=O)CC(C)(C)C1)C2c1ccc(OCc2ccccc2Cl)cc1 is strictly less than 80%?
-1

Is Emax of CC1(C)CC(=O)C2=C(C1)OC1=C(C(=O)CC(C)(C)C1)C2c1ccc(OCc2ccccc2S(C)(=O)=O)cc1 strictly below 80%?
1

Hello, is Emax of the following molecule strictly smaller than 80%? CC1(C)CC(=O)C2=C(C1)OC1=C(C(=O)CC(C)(C)C1)C2c1ccc(OCc2ccccc2CO)cc1
-1

Dear reviewer, please state whether CC1(C)CC(=O)C2=C(C1)OC1=C(C(=O)CC(C)(C)C1)C2c1ccc(OCc2cccc(F)c2)cc1 has Emax strictly beneath 80%.
-1

Identify whether the molecule CC1(C)CC(=O)C2=C(C1)OC1=C(C(=O)CC(C)(C)C1)C2c1ccc(OCc2ccccc2OC(F)(F)F)cc1 records Emax below 80%.
-1

A record lists Cc1ccc(COc2ccc(C3C4=C(CC(C)(C)CC4=O)OC4=C3C(=O)CC(C)(C)C4)cc2)cc1 . Is its Emax below 80%?
1

src = ChEMBL document CHEMBL3425479
